Assay: Toxicity in chronic oral dosed rat after 2 years
Format: organism-based
Conditions: in vivo
MEASURED_PROPERTY: NOAEL at 2 years (mg/kg/day)
Answer in mg/kg/day, number only, no unit symbol.

Read the entry CC[C@@]1([C@@H]2O[C@@H]([C@H]3O[C@@](O)(CO)[C@H](C)C[C@@H]3C)C[C@@H]2C)CC[C@H]([C@]2(C)CC[C@]3(C[C@H](O)[C@@H](C)[C@@H]([C@@H](C)[C@@H](OC)[C@H](C)C(=O)O)O3)O2)O1 [MONENSIN] and write its reported NOAEL at 2 years.
1.4

====

Assay: Toxicity in subchronic oral dosed dog after 3 months
Format: organism-based, Canis lupus familiaris
Settings: in vivo
MEASURED_PROPERTY: NOAEL at 3 months (mg/kg/day)
Please give a number only; it is taken to be in mg/kg/day.

Entry `CC[C@@]1([C@@H]2O[C@@H]([C@H]3O[C@@](O)(CO)[C@H](C)C[C@@H]3C)C[C@@H]2C)CC[C@H]([C@]2(C)CC[C@]3(C[C@H](O)[C@@H](C)[C@@H]([C@@H](C)[C@@H](OC)[C@H](C)C(=O)O)O3)O2)O1` needs its NOAEL at 3 months filled in; supply it.
5

====

Experiment: Toxicity in subchronic oral dosed rat after 3 months
Type: organism-based
Conditions: in vivo
MEASURED_PROPERTY: NOAEL at 3 months (mg/kg)
State the answer as a number, implicitly in mg/kg.

Give NOAEL at 3 months for the following compound: `CC[C@@]1([C@@H]2O[C@@H]([C@H]3O[C@@](O)(CO)[C@H](C)C[C@@H]3C)C[C@@H]2C)CC[C@H]([C@]2(C)CC[C@]3(C[C@H](O)[C@@H](C)[C@@H]([C@@H](C)[C@@H](OC)[C@H](C)C(=O)O)O3)O2)O1`
2

====

Assay: Toxicity in chronic oral dosed mouse after 2 years
Format: organism-based
Details: in vivo
MEASURED_PROPERTY: NOAEL at 2 years (mg/kg/day)
All answers are understood in mg/kg/day, so give the number only.

For the molecule CC[C@@]1([C@@H]2O[C@@H]([C@H]3O[C@@](O)(CO)[C@H](C)C[C@@H]3C)C[C@@H]2C)CC[C@H]([C@]2(C)CC[C@]3(C[C@H](O)[C@@H](C)[C@@H]([C@@H](C)[C@@H](OC)[C@H](C)C(=O)O)O3)O2)O1 [MONENSIN] , report NOAEL at 2 years.
1.3
